FYI, the data here is from paper PMC4774972.

System: HepG2
Measurement Conditions: CC50 HepG2 (µM)
Bridge positions count the residues as written; N and C are the ends. Square brackets hold non-standard residues; d marks the D form. Peptide text beside a SMILES is read from it. * marks the point of attachment. Benzoyl(4-OPh) = O=C(c1ccc(Oc2ccccc2)cc1)*; Phe(4-NH2) = Nc1ccc(C[C@H](N)C(=O)O)cc1; Gly(octyl) = CCCCCCCC[C@H](N)C(=O)O; Octanoyl(6-Me) = CCC(C)CCCCC(=O)*; Octanoyl = CCCCCCCC(=O)*; Dab = NCC[C@H](N)C(=O)O

Compound: CC(C)C[C@@H]1NC(=O)[C@@H](Cc2ccccc2)NC(=O)[C@H](CCN)NC(=O)[C@@H](NC(=O)[C@H](CCN)NC(=O)[C@@H](NC(=O)[C@H](CCN)NC(=O)c2ccc(Oc3ccccc3)cc2)[C@@H](C)O)CCNC(=O)[C@H]([C@@H](C)O)NC(=O)[C@H](CCN)NC(=O)[C@H](CCN)NC1=O [Compound 14] ({Benzoyl(4-OPh)}-[Dab]T[Dab][Dab][Dab][dF]L[Dab][Dab]T; lactam 4-C)
Units Symbol: µM
Value Prefix: =
CC50: 287

Compound: CCCCCCCC[C@@H]1NC(=O)[C@@H](Cc2ccccc2)NC(=O)[C@H](CCN)NC(=O)[C@@H](NC(=O)[C@H](CCN)NC(=O)[C@@H](NC(=O)[C@H](CCN)NC(=O)CCCCCCC)[C@@H](C)O)CCNC(=O)[C@H]([C@@H](C)O)NC(=O)[C@H](CCN)NC(=O)[C@H](CCN)NC1=O (Octanoyl-[Dab]T[Dab][Dab][Dab][dF][Gly(octyl)][Dab][Dab]T; lactam 4-C)
Units Symbol: µM
Value Prefix: =
CC50: 116

Compound: CCCCCCCC(=O)N[C@@H](CCN)C(=O)N[C@H](C(=O)N[C@@H](CCN)C(=O)N[C@H]1CCNC(=O)[C@H]([C@@H](C)O)NC(=O)[C@H](Cc2ccc(N)cc2)NC(=O)[C@H](CCN)NC(=O)[C@H](CC(C)C)NC(=O)[C@@H](Cc2ccccc2)NC(=O)[C@H](CCN)NC1=O)[C@@H](C)O [Compound 20] (Octanoyl-[Dab]T[Dab][Dab][Dab][dF]L[Dab][Phe(4-NH2)]T; lactam 4-C)
Units Symbol: µM
Value Prefix: >
CC50: 300

Compound: CCC(C)CCCCC(=O)N[C@@H](CCN)C(=O)N[C@H](C(=O)N[C@@H](CCN)C(=O)N[C@H]1CCNC(=O)[C@H]([C@@H](C)O)NC(=O)[C@H](CCN)NC(=O)[C@H](CCN)NC(=O)[C@H](CC(C)C)NC(=O)[C@@H](CC(C)C)NC(=O)[C@H](CCN)NC1=O)[C@@H](C)O (stereo partly drawn) ({Octanoyl(6-Me)}-[Dab]T[Dab][Dab][Dab][dL]L[Dab][Dab]T; lactam 4-C)
Units Symbol: µM
Value Prefix: >
CC50: 300

Compound: CCCCCCCC(=O)N[C@@H](CCN)C(=O)N[C@H](C(=O)N[C@@H](CCN)C(=O)N[C@H]1CCNC(=O)[C@H]([C@@H](C)O)NC(=O)[C@H](CCN)NC(=O)[C@H](CCNC(=O)[C@@H](N)CCC(=O)O)NC(=O)[C@H](CC(C)C)NC(=O)[C@@H](Cc2ccccc2)NC(=O)[C@H](CCN)NC1=O)[C@@H](C)O [Compound 23] (Octanoyl-[Dab]T[Dab][Dab][Dab][dF]L[Dab](Glu)[Dab]T; lactam 4-C)
Units Symbol: µM
Value Prefix: >
CC50: 300

---

Tested on: K. pneumoniae CI 138-16357-20362, PmxR
Procedure Text: microbe, parasite or virus in culture
Format: cell-based, Klebsiella pneumoniae
Measurement Conditions: carbapenem & polymyxin resistant clinical isolate; MHB, 5 × 10^5 CFU/mL, 18 h at 37 °C
Numbered stars: 1 amine (or outer) side, 2 acyl side, 3 side chain; on linkers, the order of the positions; unused ones are H or OH. Bridge positions count the residues as written; N and C are the ends. Square brackets hold non-standard residues; d marks the D form. Peptide text beside a SMILES is read from it. * marks the point of attachment. Benzoyl(4-Ph) = O=C(c1ccc(-c2ccccc2)cc1)*; X1 = c1ccc(-c2ccc(N*)cc2)cc1; Octanoyl = CCCCCCCC(=O)*; Dab = NCC[C@H](N)C(=O)O; CO = O=C([*:1])[*:2]
Observed Property: MIC K. pneumoniae CI 138-16357-20362, PmxR

Compound: CCCCCCCC(=O)N[C@@H](CCN)C(=O)N[C@H](C(=O)N[C@@H](CCN)C(=O)N[C@H]1CCNC(=O)[C@H]([C@@H](C)O)NC(=O)[C@H](CCN)NC(=O)[C@H](CCN)NC(=O)[C@H](CC(C)C)NC(=O)[C@@H](Cc2ccccc2)NC(=O)[C@H](CCNC(=O)[C@@H](N)CCC(=O)O)NC1=O)[C@@H](C)O [Compound 32] (Octanoyl-[Dab]T[Dab][Dab][Dab](Glu)[dF]L[Dab][Dab]T; lactam 4-C)
Value Reported: >32 µg/mL

Compound: CC(C)C[C@@H]1NC(=O)[C@@H](Cc2ccccc2)NC(=O)[C@H](CCN)NC(=O)[C@@H](NC(=O)[C@H](CCN)NC(=O)[C@@H](NC(=O)[C@H](CCN)NC(=O)c2ccc(-c3ccccc3)cc2)[C@@H](C)O)CCNC(=O)[C@H]([C@@H](C)O)NC(=O)[C@H](CCN)NC(=O)[C@H](CCN)NC1=O [Compound 10] ({Benzoyl(4-Ph)}-[Dab]T[Dab][Dab][Dab][dF]L[Dab][Dab]T; lactam 4-C)
Value Reported: >32 µg/mL

Compound: CC(C)C[C@@H]1NC(=O)[C@@H](Cc2ccccc2)NC(=O)[C@H](CCN)NC(=O)[C@@H](NC(=O)[C@H](CCN)NC(=O)[C@@H](NC(=O)[C@H](CCN)NC(=O)Nc2ccc(-c3ccccc3)cc2)[C@@H](C)O)CCNC(=O)[C@H]([C@@H](C)O)NC(=O)[C@H](CCN)NC(=O)[C@H](CCN)NC1=O [Compound 15] ({X1-CO}-[Dab]T[Dab][Dab][Dab][dF]L[Dab][Dab]T; lactam 4-C)
Value Reported: >32 µg/mL

---

Test system: HepG2
Measurement Conditions: CC50 HepG2 (µM)
Numbered stars: 1 amine (or outer) side, 2 acyl side, 3 side chain; on linkers, the order of the positions; unused ones are H or OH. Bridge positions count the residues as written; N and C are the ends. Square brackets hold non-standard residues; d marks the D form. Peptide text beside a SMILES is read from it. * marks the point of attachment. Bip = N[C@@H](Cc1ccc(-c2ccccc2)cc1)C(=O)O; X1 = c1ccc(-c2ccc(N*)cc2)cc1; dDab = NCC[C@@H](N)C(=O)O; Octanoyl = CCCCCCCC(=O)*; Dab = NCC[C@H](N)C(=O)O; CO = O=C([*:1])[*:2]

Compound: CC(C)C[C@@H]1NC(=O)[C@@H](Cc2ccccc2)NC(=O)[C@H](CCN)NC(=O)[C@@H](NC(=O)[C@H](CCN)NC(=O)[C@@H](NC(=O)[C@H](CCN)NC(=O)Nc2ccc(-c3ccccc3)cc2)[C@@H](C)O)CCNC(=O)[C@H]([C@@H](C)O)NC(=O)[C@H](CCN)NC(=O)[C@H](CCN)NC1=O [Compound 15] ({X1-CO}-[Dab]T[Dab][Dab][Dab][dF]L[Dab][Dab]T; lactam 4-C)
Units Symbol: µM
Value Prefix: =
CC50: 316
--
Compound: CCCCCCCC(=O)N[C@@H](CCN)C(=O)N[C@H](C(=O)N[C@@H](CCN)C(=O)N[C@H]1CCNC(=O)[C@H]([C@@H](C)O)NC(=O)[C@H](CCN)NC(=O)[C@H](CCN)NC(=O)[C@H](Cc2ccc(-c3ccccc3)cc2)NC(=O)[C@@H](Cc2ccccc2)NC(=O)[C@H](CCN)NC1=O)[C@@H](C)O (Octanoyl-[Dab]T[Dab][Dab][Dab][dF][Bip][Dab][Dab]T; lactam 4-C)
Units Symbol: µM
Value Prefix: =
CC50: 117
--
Compound: CCCCCCCC(=O)N[C@@H](CCN)C(=O)N[C@H](C(=O)NCC(=O)N[C@H]1CCNC(=O)[C@H]([C@@H](C)O)NC(=O)[C@H](CCN)NC(=O)[C@H](CCN)NC(=O)[C@H](CC(C)C)NC(=O)[C@@H](Cc2ccccc2)NC(=O)[C@H](CCN)NC1=O)[C@@H](C)O [Compound 38] (Octanoyl-[Dab]TG[Dab][Dab][dF]L[Dab][Dab]T; lactam 4-C)
Units Symbol: µM
Value Prefix: >
CC50: 300
--
Compound: CCCCCCCC(=O)N[C@@H](CCN)C(=O)N[C@H](C(=O)N[C@H](CCN)C(=O)N[C@H]1CCNC(=O)[C@H]([C@@H](C)O)NC(=O)[C@H](CCN)NC(=O)[C@H](CCN)NC(=O)[C@H](CC(C)C)NC(=O)[C@@H](Cc2ccccc2)NC(=O)[C@H](CCN)NC1=O)[C@@H](C)O [Compound 36] (Octanoyl-[Dab]T[dDab][Dab][Dab][dF]L[Dab][Dab]T; lactam 4-C)
Units Symbol: µM
Value Prefix: >
CC50: 300
--
Compound: CCCCCCCC(=O)N[C@@H](CCN)C(=O)N[C@H](C(=O)N[C@@H](CCN)C(=O)N[C@H]1CCNC(=O)[C@H]([C@@H](C)O)NC(=O)[C@H](CCN)NC(=O)[C@H](CCN)NC(=O)[C@H](CC(C)C)NC(=O)[C@@H](Cc2ccccc2)NC(=O)[C@H](CCNC(=O)[C@@H](N)CCC(=O)O)NC1=O)[C@@H](C)O [Compound 32] (Octanoyl-[Dab]T[Dab][Dab][Dab](Glu)[dF]L[Dab][Dab]T; lactam 4-C)
Units Symbol: µM
Value Prefix: >
CC50: 300
